# tested-on: T1, 包含有His标签的重组人源TSLP蛋白(rhTSLP-His) (human)
# T1 construct: also called rhTSLP-His重组蛋白; rhTSLP-His蛋白
# experimental-details: ELISA as in Example 6, rhTSLP-His coated
quantity: pEC50
Conceptually, pEC50 converts a concentration in mol/L into minus its log10.

**Q:** Please give the measured pEC50 for this binder: 抗TSLP人源化单克隆抗体9F8-46H13L (antibody, human IgG2, lambda, V domains shown) VH: QVQLVQSGAEVKKPGASVKVSCCASGYSFTTYWMHWVRQAPGQGLEWMGIIDPSDSETTLNQKFKDRVTLTVDKSTSTAYMELSSLRSEDTAVYYCTRSLDGYFDYWGQGTTVTVSS VL: DIQLTQSPSSLSASVGDRVTITCRAGENIYSYLAWYQQKPGKAPKLLVYNAKILAEGVPSRFSGSGSGTDFTLTISSLQPEDFATYYCQHHYDTPWTFGGGTKLTVLG
**A:** 8.02

**Q:** Let us now turn to 抗TSLP人源化单克隆抗体5F10-69H13L (antibody, human IgG2, lambda, V domains shown) VH: EVQLVQSGAEVKKPGATVKISCCASGYSFTSYWMHWVQQAPGKGLEWMGLIDPTDSEISLSQKFKDRVTLTVDKSTDTAYMELSSLRSEDTAVYYCARSLDGFFDQWGQGTTVTVSS VL: DIQLTQSPSSLSASVGDRVTITCRAGENIYSYLAWYQQKPGKAPKLLVYNAKILAEGVPSRFSGSGSGTDFTLTISSLQPEDFATYYCQHHYDTPWTFGGGTKLTVLG
**A:** 7.50

**Q:** Let us now turn to 抗TSLP人源化单克隆抗体M432-69H13L (antibody, human IgG2, lambda, V domains shown) VH: EVQLVQSGAEVKKPGATVKISCCASAYSFTTYWMHWVQQAPGKGLEWMGLIDPSDSETTLNQKFKDRVTLTVDKSTDTAYMELSSLRSEDTAVYYCARSLDGYFDYWGQGTTVTVSS VL: DIQLTQSPSSLSASVGDRVTITCRAGENIYSYLAWYQQKPGKAPKLLVYNAKILAEGVPSRFSGSGSGTDFTLTISSLQPEDFATYYCQHHYDTPWTFGGGTKLTVLG
**A:** 8.39

**Q:** Let us now turn to Tezepelumab(安进和阿斯利康合作开发抗体) (antibody, V domains shown) VH: QMQLVESGGGVVQPGRSLRLSCAASGFTFRTYGMHWVRQAPGKGLEWVAVIWYDGSNKHYADSVKGRFTITRDNSKNTLNLQMNSLRAEDTAVYYCARAPQWELVHEAFDIWGQGTMVTVSS VL: SYVLTQPPSVSVAPGQTARITCGGNNLGSKSVHWYQQKPGQAPVLVVYDDSDRPSWIPERFSGSNSGNTATLTISRGEAGDEADYYCQVWDSSSDHVVFGGGTKLTVLG
**A:** 8.75

Provenance of the data: patent CN115028722A
